Each entry below lists one item and its recorded pIC50 value.
- Tested on: UniProt Q99685
- Run description: MAGL inhibition potency (IC50) assay with 4NPA substrate
- Assay type: biochemical
- Run conditions: Method 14: Reaction Biology MAGL enzyme, 6 nM; read-out: MAGL Potency (Detection Method)
- Protocol: The potency of certain compounds for inhibiting MAGL were obtained using the following assays. […] MAGL hydrolyzes 4-nitrophenylacetate resulting in a yellow product, 4-nitrophenol, with an absorbance of 405-412 nm. MAGL Inhibition was measured by the following assay. Monoacylglycerol Lipase (MAGL) inhibition was measured using recombinant MAGL enzyme (aa 2-303 RBC, internal preparation) and the substrate 4-Nitrophenyl acetate (4NPA) (Sigma-Aldrich, N8130). […]
pIC50: −log10 of the molar value.

Answered cases to consult:
{"Chem smiles": "Cc1ccccc1-c1ccn(C(=O)C2CC3(C2)CN(C(=O)c2cc(O)ccc2F)C3)n1", "Endpoint result": "6.30 to 6.82"}
{"Chem smiles": "O=C(c1cc(O)ccc1F)N1CC2(CC(n3ncnc3-c3ccccc3Cl)C2)C1", "Endpoint result": "6.82 to 7.30"}
{"Chem smiles": "Cc1cc(C2CC3(C2)CN(C(=O)c2c(F)ccc(O)c2C)C3)n(-c2ccccc2C)n1", "Endpoint result": "6.00 to 6.30"}
{"Chem smiles": "Cc1ccccc1-c1nnc(C2CC3(C2)CN(C(=O)c2cc(O)ccc2F)C3)o1", "Endpoint result": "6.00 to 6.30"}
{"Chem smiles": "O=C(c1cc(O)ccc1F)N1CC2(CC(c3nnc(-c4ccccc4Cl)o3)C2)C1", "Endpoint result": "6.00 to 6.30"}

Noted pIC50 for `Cc1cc(C2CC3(C2)CN(C(=O)c2cc(O)ccc2F)C3)n(-c2cc(F)ccc2C)n1` , tested on UniProt Q99685: > 7.30

# pIC50 measured on UniProt Q99685 for item `Cc1cc(F)ccc1-n1c(C)cnc1C1CC2(C1)CN(C(=O)c1cc(O)ccc1F)C2` = 5.29 to 6.00

Summary: `O=C(c1cc(O)ccc1F)N1CC2(CC(c3nccn3-c3ccccc3)C2)C1` , UniProt Q99685, pIC50 = 6.00 to 6.30

###

- Tested on: Monoacylglycerol Lipase (MAGL) (Homo sapiens (Human), UniProt Q99685)
- Sequence (Q99685 2-303): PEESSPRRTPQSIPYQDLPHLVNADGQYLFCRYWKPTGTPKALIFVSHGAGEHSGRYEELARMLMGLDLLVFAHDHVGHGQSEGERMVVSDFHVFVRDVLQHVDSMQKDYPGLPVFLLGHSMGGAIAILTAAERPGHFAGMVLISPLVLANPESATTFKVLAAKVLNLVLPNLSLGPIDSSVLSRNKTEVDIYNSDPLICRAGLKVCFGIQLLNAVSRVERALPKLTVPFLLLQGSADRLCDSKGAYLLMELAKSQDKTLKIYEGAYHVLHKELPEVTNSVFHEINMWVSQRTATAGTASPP
- Run description: MAGL inhibition potency (IC50) assay with 4NPA substrate
- Type: biochemical
- Run conditions: Method 12: Reaction Biology MAGL enzyme, 15 nM; read-out: MAGL Potency (Detection Method)
Reported IC50 is given for each of the following compounds.

{"Compound": "O=C(c1cc(O)ccc1F)N1CC2(CC(n3cc(C(F)(F)F)c(-c4ccccc4F)n3)C2)C1", "IC50": "< 50 nM"}
{"Compound": "Cc1cnn(C2CC3(C2)CN(C(=O)c2cc(O)ccc2F)C3)c1-c1cc(F)ccc1Cl (single isomer, unassigned)", "IC50": "50 to 150 nM"}
{"Compound": "O=C(c1ccc(F)cc1OC1CC1)N1CC2(CC(n3ncc(C(F)(F)F)c3-c3ccccc3F)C2)C1", "IC50": "1000 to 5100 nM"}

Please fill in: IC50 reported for `O=C(c1c(F)cccc1OC1CC1)N1CC2(CC(n3cc(C(F)(F)F)c(-c4ccccc4F)n3)C2)C1` = 1000 to 5100 nM

The reported IC50 of the compound `Cc1cn(C2CC3(C2)CN(C(=O)c2cc(O)ccc2F)C3)nc1-c1cc(F)ccc1Cl` was < 50 nM

Noted for `O=C(c1ccc(F)cc1OC1CC1)N1CC2(CC(n3cc(C(F)(F)F)c(-c4ccccc4F)n3)C2)C1` : its IC50 reads 150 to 500 nM

###

// values below are reported pIC50
- Tested on: Monoacylglycerol Lipase (MAGL) (Homo sapiens (Human))
- Run description: MAGL inhibition potency (IC50) assay with 4NPA substrate
- Type: biochemical
- Run conditions: Method 12: Reaction Biology MAGL enzyme, 15 nM; read-out: Potency (MAGL inhibition)
pIC50: −log10 of the molar value.

Examples with their reported pIC50 follow.
{"Chem smiles": "Cc1cn(C2CC3(C2)CN(C(=O)c2cc(O)ccc2C(F)(F)F)C3)nc1-c1ccccc1F", "pIC50": "< 5.00"}
{"Chem smiles": "O=C(c1c(F)cccc1OC1CC1)N1CC2(CC(n3ncc(C(F)(F)F)c3-c3ccccc3F)C2)C1", "pIC50": "< 5.00"}

Attention now shifts to the item below.
For this compound ( `Cc1cnn(C2CC3(C2)CN(C(=O)c2cc(O)ccc2C(F)(F)F)C3)c1-c1ccccc1F` ), measured pIC50 is < 5.00

###

Quick reference for pIC50 among some molecules
- Tested on: human recombinant FAAH (Homo sapiens (Human), UniProt O00519)
- Sequence (O00519 whole entry): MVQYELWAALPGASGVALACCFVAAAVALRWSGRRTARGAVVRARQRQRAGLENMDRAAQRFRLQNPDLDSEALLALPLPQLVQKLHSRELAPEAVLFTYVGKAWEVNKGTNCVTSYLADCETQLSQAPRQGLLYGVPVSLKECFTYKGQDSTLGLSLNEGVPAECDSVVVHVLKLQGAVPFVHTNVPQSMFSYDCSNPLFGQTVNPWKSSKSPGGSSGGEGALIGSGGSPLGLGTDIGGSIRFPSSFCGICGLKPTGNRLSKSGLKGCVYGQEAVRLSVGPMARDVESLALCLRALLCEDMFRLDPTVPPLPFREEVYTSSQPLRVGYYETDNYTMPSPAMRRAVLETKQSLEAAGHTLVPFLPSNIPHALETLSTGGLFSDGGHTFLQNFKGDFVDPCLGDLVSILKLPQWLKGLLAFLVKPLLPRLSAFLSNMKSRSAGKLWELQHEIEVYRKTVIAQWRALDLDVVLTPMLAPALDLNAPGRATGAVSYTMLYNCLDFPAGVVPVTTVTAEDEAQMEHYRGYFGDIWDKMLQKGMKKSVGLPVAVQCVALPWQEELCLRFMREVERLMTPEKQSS
- Run description: FAAH inhibition potency counter screen (IC50)
- Assay type: biochemical
- Run conditions: Method B: starting concentration of 10 μM
pIC50: −log10 of the molar value.

{"Molecule": "O=C(c1cc(O)ccc1F)N1CC2(CC(n3cc(C4CC4)c(-c4ccccc4F)n3)C2)C1 [Compound 493]", "pIC50": "< 5.00"}

Next, consider the following molecule.
Record O=C(c1cc(O)ccc1F)N1CC2(CC(n3cc(C(F)(F)F)c(-c4ccccc4F)n3)C2)C1 [Compound 473] . Reported pIC50: < 5.00

###

- Tested on: Monoacylglycerol Lipase (MAGL) (Homo sapiens (Human))
- Run description: MAGL inhibition potency (IC50) assay with 4NPA substrate
- Format: biochemical
- Run conditions: Method 3: Reaction Biology MAGL enzyme, 10 nM; read-out: MAGL Potency (Detection Method)
Observed property: IC50

compound `CCOc1cc(F)ccc1C(=O)N1CC2(CC(c3cc(C)nn3-c3ccccc3C)C2)C1` , IC50 observed: < 50 nM

###

- Tested on: Monoacylglycerol Lipase (MAGL) (Homo sapiens (Human))
- Run description: MAGL inhibition potency (IC50) assay with 4NPA substrate
- Format: biochemical
- Run conditions: Method 6: Reaction Biology MAGL enzyme, 6 nM; read-out: MAGL Potency (Detection Method)
IC50 values, listed per item

Solved entries:
{"Chem smiles": "Cc1cn(C2CC3(C2)CN(C(=O)c2ccc(F)cc2OC2CC2)C3)nc1-c1ccccc1F", "IC50": "150 to 500 nM"}
{"Chem smiles": "Cc1cnn(C2CC3(C2)CN(C(=O)c2ccc(F)cc2OC2CC2)C3)c1-c1ccccc1C(F)(F)F", "IC50": "1000 to 5100 nM"}
{"Chem smiles": "Cc1ccccc1-c1nn(C2CC3(C2)CN(C(=O)c2ccc(F)cc2OC2CC2)C3)cc1C", "IC50": "150 to 500 nM"}

Field IC50 (entry `Cc1cnn(C2CC3(C2)CN(C(=O)c2cc(O)ccc2F)C3)c1-c1ccccc1F` ) reads 50 to 150 nM

Form field IC50, entry `Cc1cn(C2CC3(C2)CN(C(=O)c2ccc(F)cc2OC2CC2)C3)nc1-c1ccccc1C(F)(F)F` : 50 to 150 nM

// IC50 lookup, compound = `O=C(c1cc(O)ccc1F)N1CC2(CC(n3ncc(C4CC4)c3-c3ccccc3Cl)C2)C1` , result: 150 to 500 nM

###

- Tested on: Monoacylglycerol Lipase (MAGL) (Homo sapiens (Human), UniProt Q99685)
- Run description: MAGL inhibition potency (IC50) assay with 4NPA substrate
- Type: biochemical
- Run conditions: Method 6: Reaction Biology MAGL enzyme, 6 nM; read-out: MAGL Potency (Detection Method)
Parameter: IC50. Scope: all listed entries.

{"Compound": "Cc1cc(-c2cc(F)ccc2C)n(C2CC3(C2)CN(C(=O)c2ccc(F)cc2OC2CC2)C3)n1 [Compound 423]", "IC50": "1 to 5.1 µM"}
{"Compound": "Cc1cn(C2CC3(C2)CN(C(=O)c2cc(O)ccc2F)C3)nc1-c1ccccc1C(F)(F)F [Compound 444]", "IC50": "< 0.05 µM"}
{"Compound": "Cc1cc(F)c(C(=O)N2CC3(CC(n4ncc(C)c4-c4ccccc4C)C3)C2)cc1O [Compound 407]", "IC50": "0.05 to 0.15 µM"}
{"Compound": "Cc1ccc(F)cc1-c1nn(C2CC3(C2)CN(C(=O)c2ccc(F)cc2OC2CC2)C3)cc1C [Compound 449]", "IC50": "0.15 to 0.5 µM"}
{"Compound": "Cc1ccc(F)cc1-c1cc(C)n(C2CC3(C2)CN(C(=O)c2ccc(F)cc2OC2CC2)C3)n1 [Compound 450]", "IC50": "0.15 to 0.5 µM"}

Input Cc1cn(C2CC3(C2)CN(C(=O)c2cc(O)ccc2F)C3)nc1-c1ccccc1F [Compound 417] . Output IC50: < 0.05 µM

Entry Cc1cc(-c2cc(F)ccc2C)n(C2CC3(C2)CN(C(=O)c2cc(O)ccc2F)C3)n1 [Compound 415] , IC50 reported as 0.05 to 0.15 µM

Looking up Cc1cc(-c2cc(F)ccc2C)n(C2CC3(C2)CN(C(=O)c2ccc(F)cc2OC(F)F)C3)n1 [Compound 428] , I see its IC50 listed as 0.15 to 0.5 µM

Values compiled from patent US20240308985A1.
